- Species: Homo sapiens
- EXPERIMENT NOTES: Induction of recombinant PP2A catalytic subunit (unknown origin) activity assessed as phosphate level using threonine-phosphopeptide at 5 uM
Active and inactive are the calls of the source. The rule behind the calls is not given here.
Hello, when you answer, please use one of the following outcomes: active, inactive

CCCCCCCCc1ccc(CCC(N)(CO)CO)cc1 [FINGOLIMOD] :: active

Please indicate how the test categorized "CCCCCCCCCCCCC/C=C/[C@H](O)[C@@H](CO)NC(C)=O" .
active

// outcome(item) with item = "CCCCCCCCCCCCC/C=C/[C@H](O)[C@@H](CO)NC(=O)CCCCCCCCC"
inactive

// outcome(item) with item = "CCCCCCCCCCCCC/C=C/[C@H](O)[C@@H](CO)NC(=O)CCCCC"
active

// provenance: ChEMBL document CHEMBL3352354
